target: MMP-3 (Homo sapiens); assay: Inhibition of human matrix metalloproteases; type: biochemical; details: inhibitor 10 μM; read-out: percentage of MMP-3 activity remaining
Sequence (P08254 100-477): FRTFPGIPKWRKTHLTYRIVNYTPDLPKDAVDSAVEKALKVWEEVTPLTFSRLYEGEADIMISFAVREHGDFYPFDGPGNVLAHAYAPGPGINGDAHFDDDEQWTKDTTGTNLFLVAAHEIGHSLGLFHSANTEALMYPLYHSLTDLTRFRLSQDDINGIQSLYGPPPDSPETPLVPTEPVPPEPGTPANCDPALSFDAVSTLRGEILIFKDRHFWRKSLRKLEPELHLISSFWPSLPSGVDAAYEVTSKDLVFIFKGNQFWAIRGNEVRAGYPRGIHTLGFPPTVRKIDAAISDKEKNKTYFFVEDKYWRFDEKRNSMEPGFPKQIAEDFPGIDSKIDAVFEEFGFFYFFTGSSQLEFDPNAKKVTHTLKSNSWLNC
READOUT: remaining activity at 10 µM (%)
All answers are understood in %, so give the number only.

Answered examples (3):
# COMPOUND, MEASUREMENT_UNIT, OBS_VALUE
rows = [
    ("CC(C)(C)[C@@H]1NC(=O)[C@@H](CN(O)C=O)CCCCCCCNC1=O [Compound 1E]", "%", 80),
    ("NCCCC[C@@H]1NC(=O)[C@@H](CN(O)C=O)CCCCCCCCCCCCCCNC1=O [Compound 7E]", "%", 94),
    ("CC(C)(C)C1NC(=O)C(CN(O)C=O)CCCCCCCCCNC1=O (stereo not shown) [Compound 2]", "%", 91),
]

Requested field: remaining activity at 10 µM. Item: CCCCCCNC(=O)[C@H](CCCCN)NC(=O)[C@H](CCCCC)CN(O)C=O [Compound 9C, reference compound]
1

Could you do the same for CC(=O)NCCCC[C@@H]1NC(=O)[C@@H](CN(O)C=O)CCCCCCCCCNC1=O [Compound 8E] , please?
92

Could you do the same for CCCC[C@H](CN(O)C=O)C(=O)N[C@@H](CCCCN)C(=O)Nc1ccccc1 [Compound 10C, reference compound] , please?
27

Could you do the same for CC(C)(C)[C@@H]1NC(=O)[C@@H](CN(O)C=O)CCCCCCCCCCCCCCNC1=O [Compound 5E] , please?
96

* * *

molecular target: UniProt P08253; assay: Inhibition of human matrix metalloproteases; type: biochemical; conditions: inhibitor 10 μM; read-out: percentage of MMP2 activity remaining
Sequence (P08253 110-660): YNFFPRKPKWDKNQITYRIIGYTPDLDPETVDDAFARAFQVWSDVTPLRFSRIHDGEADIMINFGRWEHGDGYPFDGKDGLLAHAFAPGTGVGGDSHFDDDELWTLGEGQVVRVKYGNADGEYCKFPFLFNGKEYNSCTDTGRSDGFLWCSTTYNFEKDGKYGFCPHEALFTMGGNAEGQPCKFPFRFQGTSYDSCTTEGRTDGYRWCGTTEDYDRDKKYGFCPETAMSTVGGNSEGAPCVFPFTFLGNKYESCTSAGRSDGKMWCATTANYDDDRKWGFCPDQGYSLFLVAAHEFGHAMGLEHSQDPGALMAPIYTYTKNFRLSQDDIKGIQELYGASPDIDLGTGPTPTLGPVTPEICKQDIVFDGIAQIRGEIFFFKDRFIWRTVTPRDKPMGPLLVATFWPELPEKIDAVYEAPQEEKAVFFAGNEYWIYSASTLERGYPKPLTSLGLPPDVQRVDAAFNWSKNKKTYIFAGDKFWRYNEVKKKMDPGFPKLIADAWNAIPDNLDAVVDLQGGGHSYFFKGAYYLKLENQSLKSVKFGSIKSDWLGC
READOUT: remaining activity at 10 µM (%)
All answers are understood in %, so give the number only.

# COMPOUND, READOUT, OBS_VALUE
data = [
    ("CC(C)(C)C1NC(=O)C(CN(O)C=O)CCCCCCCCCNC1=O (stereo not drawn)", "remaining activity at 10 µM", 92),
    ("CCCC[C@H](CN(O)C=O)C(=O)N[C@@H](CCCCN)C(=O)Nc1ccccc1 [Compound 10C, reference compound]", "remaining activity at 10 µM", 45),
]

Would you kindly look at the next entry?
Requested field: remaining activity at 10 µM. Item: CC(=O)NCCCC[C@@H]1NC(=O)[C@@H](CN(O)C=O)CCCCCCCCCNC1=O
80

* * *

Molecular target: MMP-1 (Homo sapiens, UniProt P03956)
Sequence (P03956 100-469): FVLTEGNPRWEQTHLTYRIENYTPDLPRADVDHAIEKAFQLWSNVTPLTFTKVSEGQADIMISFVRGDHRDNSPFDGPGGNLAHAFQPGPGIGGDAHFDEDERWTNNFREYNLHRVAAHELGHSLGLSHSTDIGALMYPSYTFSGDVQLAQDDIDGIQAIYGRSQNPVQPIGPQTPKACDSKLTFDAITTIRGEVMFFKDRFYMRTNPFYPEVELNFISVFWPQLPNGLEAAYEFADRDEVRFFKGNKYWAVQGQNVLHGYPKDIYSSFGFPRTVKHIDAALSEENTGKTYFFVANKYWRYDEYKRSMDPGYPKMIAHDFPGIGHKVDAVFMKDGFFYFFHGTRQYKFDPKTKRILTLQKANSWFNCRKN
Experiment: Inhibition of human matrix metalloproteases
Assay type: biochemical
Settings: inhibitor 10 μM; read-out: percentage of MMP-1 activity remaining
READOUT: remaining activity at 10 µM
Your answer should be a number followed by the unit of measure.

Answered examples (5):
# COMPOUND, remaining activity at 10 µM
data = [
    ("CC(C)(C)C1NC(=O)C(CN(O)C=O)CCCCCCCCCNC1=O (stereo not shown)", "86%"),
    ("CC(C)(C)[C@@H]1NC(=O)[C@@H](CN(O)C=O)CCCCCCCNC1=O", "99%"),
    ("CCCC[C@H](CN(O)C=O)C(=O)N[C@@H](CCCCN)C(=O)Nc1ccccc1 [Compound 10C, reference compound]", "3%"),
    ("CC(=O)NCCCC[C@@H]1NC(=O)[C@@H](CN(O)C=O)CCCCCCCCCNC1=O", "87%"),
    ("CCCCCCNC(=O)[C@H](CCCCN)NC(=O)[C@H](CCCCC)CN(O)C=O [Compound 9C, reference compound]", "0%"),
]

Requested field: remaining activity at 10 µM. Item: NCCCC[C@@H]1NC(=O)[C@@H](CN(O)C=O)CCCCCCCCCCCCCCNC1=O
93%

Could you do the same for CC(C)(C)[C@@H]1NC(=O)[C@@H](CN(O)C=O)CCCCCCCCCCCCCCNC1=O , please?
92%

* * *

molecular target: UniProt:P08254; experiment: Inhibition of human matrix metalloproteases; type: biochemical; conditions: inhibitor 1.0 μM; read-out: percentage of MMP-3 activity remaining
Listed below: remaining activity at 1 µM values for each entry.
All answers are understood in %, so give the number only.

# MOLECULE, MEASUREMENT_UNIT, OBS_VALUE
rows = [
    ("CCCCCCNC(=O)[C@H](CCCCN)NC(=O)[C@H](CCCCC)CN(O)C=O [Compound 9C, reference compound]", "%", 19),
    ("NCCCC[C@@H]1NC(=O)[C@@H](CN(O)C=O)CCCCCCCCCCCCCCNC1=O", "%", 100),
    ("CCCC[C@H](CN(O)C=O)C(=O)N[C@@H](CCCCN)C(=O)Nc1ccccc1 [Compound 10C, reference compound]", "%", 32),
    ("CC(C)(C)C1NC(=O)C(CN(O)C=O)CCCCCCCCCNC1=O (stereo not shown)", "%", 97),
    ("CC(C)(C)[C@@H]1NC(=O)[C@@H](CN(O)C=O)CCCCCCCCCCCCCCNC1=O", "%", 97),
]

Requested field: remaining activity at 1 µM. Item: CC(=O)NCCCC[C@@H]1NC(=O)[C@@H](CN(O)C=O)CCCCCCCCCNC1=O
100

Could you do the same for CC(C)(C)[C@@H]1NC(=O)[C@@H](CN(O)C=O)CCCCCCCNC1=O , please?
97

* * *

target: MMP-9 (Homo sapiens); assay: Inhibition of human matrix metalloproteases; format: biochemical; conditions: inhibitor 1.0 μM; read-out: percentage of MMP-9 activity remaining
Sequence (P14780 94-707): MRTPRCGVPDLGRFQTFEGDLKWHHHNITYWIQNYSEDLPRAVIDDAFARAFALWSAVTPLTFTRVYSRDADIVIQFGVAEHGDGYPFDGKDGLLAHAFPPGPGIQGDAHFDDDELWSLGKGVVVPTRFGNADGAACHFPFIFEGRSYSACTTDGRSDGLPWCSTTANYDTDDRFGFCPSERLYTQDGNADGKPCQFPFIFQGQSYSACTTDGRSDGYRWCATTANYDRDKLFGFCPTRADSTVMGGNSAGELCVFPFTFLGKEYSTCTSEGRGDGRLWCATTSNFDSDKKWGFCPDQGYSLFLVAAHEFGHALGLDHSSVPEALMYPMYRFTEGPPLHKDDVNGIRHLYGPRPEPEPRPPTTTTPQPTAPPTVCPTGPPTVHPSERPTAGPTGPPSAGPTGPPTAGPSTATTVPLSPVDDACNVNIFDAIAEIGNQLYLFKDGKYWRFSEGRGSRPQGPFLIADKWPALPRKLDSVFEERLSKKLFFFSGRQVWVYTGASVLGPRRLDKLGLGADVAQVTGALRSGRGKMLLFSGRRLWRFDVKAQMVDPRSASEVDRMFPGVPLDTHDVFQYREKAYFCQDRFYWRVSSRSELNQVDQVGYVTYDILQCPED
READOUT: remaining activity at 1 µM (%)
All answers are understood in %, so give the number only.

Answered examples (2):
# MOLECULE, remaining activity at 1 µM, %
measured = [
    ("CCCCCCNC(=O)[C@H](CCCCN)NC(=O)[C@H](CCCCC)CN(O)C=O [Compound 9C, reference compound]", 39),
    ("CC(=O)NCCCC[C@@H]1NC(=O)[C@@H](CN(O)C=O)CCCCCCCCCNC1=O", 92),
]

Would you kindly look at the next entry?
Reported remaining activity at 1 µM for MMP-9 (Homo sapiens), given CC(C)(C)[C@@H]1NC(=O)[C@@H](CN(O)C=O)CCCCCCCCCCCCCCNC1=O ?
96

* * *

target: MMP-9 (Homo sapiens); assay: Inhibition of human matrix metalloproteases; type: biochemical; details: inhibitor 10 μM; read-out: percentage of MMP-9 activity remaining
READOUT: remaining activity at 10 µM (%)
All answers are understood in %, so give the number only.

Answered examples (3):
# COMPOUND, remaining activity at 10 µM, %
records = [
    ("CC(=O)NCCCC[C@@H]1NC(=O)[C@@H](CN(O)C=O)CCCCCCCCCNC1=O", 92),
    ("CCCC[C@H](CN(O)C=O)C(=O)N[C@@H](CCCCN)C(=O)Nc1ccccc1 [Compound 10C, reference compound]", 11),
    ("CC(C)(C)[C@@H]1NC(=O)[C@@H](CN(O)C=O)CCCCCCCNC1=O", 89),
]

Requested field: remaining activity at 10 µM. Item: CC(C)(C)[C@@H]1NC(=O)[C@@H](CN(O)C=O)CCCCCCCCCCCCCCNC1=O
94

Could you do the same for NCCCC[C@@H]1NC(=O)[C@@H](CN(O)C=O)CCCCCCCCCCCCCCNC1=O , please?
95

Could you do the same for CC(C)(C)C1NC(=O)C(CN(O)C=O)CCCCCCCCCNC1=O (stereo not shown) , please?
91

Could you do the same for CCCCCCNC(=O)[C@H](CCCCN)NC(=O)[C@H](CCCCC)CN(O)C=O [Compound 9C, reference compound] , please?
6

* * *

Listed below: remaining activity at 10 µM values for each entry.
biological target: UniProtKB P08253; assay: Inhibition of human matrix metalloproteases; type: biochemical; conditions: inhibitor 10 μM; read-out: percentage of MMP2 activity remaining
All answers are understood in %, so give the number only.

Requested field: remaining activity at 10 µM. Item: CC(C)(C)[C@@H]1NC(=O)[C@@H](CN(O)C=O)CCCCCCCNC1=O [Compound 1E]
85

Could you do the same for CCCCCCNC(=O)[C@H](CCCCN)NC(=O)[C@H](CCCCC)CN(O)C=O [Compound 9C, reference compound] , please?
2

Could you do the same for NCCCC[C@@H]1NC(=O)[C@@H](CN(O)C=O)CCCCCCCCCCCCCCNC1=O [Compound 7E] , please?
85

Could you do the same for CC(C)(C)[C@@H]1NC(=O)[C@@H](CN(O)C=O)CCCCCCCCCCCCCCNC1=O [Compound 5E] , please?
100

Where these numbers come from: patent US7538085B2
